Reported melting point values are given for each entry in this list.
The answer is to be given in °C; state only the numeric part.

compound="CC(=O)N1CCN(c2cccc(-n3cnc4cc(C(C)O)ccc43)c2)CC1 (stereo not shown)" recorded_value=126

Below: the item to evaluate.
Fill in the blank: the reported melting point of COc1ccc2c(c1)ncn2-c1cccc(N2CCN(C(C)=O)CC2)c1 is ____. 157
